Record form. Attribute: activation. Fill in for each entry.
Tested on: Aedes aegypti neuropeptide Y-like receptor 7 (NPYLR7)
Assay protocol: agonists of mosquito NPYLR7 receptor, primary screen, cell-based, Aedes aegypti, calcium fluorescence, mosquito biting behavior (AID 1259423);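 note: 0% = vehicle and 100% = reference agonist at the receptor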
Applied conditions: HEK293T NPYLR7/Galpha15, GCaMP6s calcium fluorescence; measured here: Max-Min RFU normalised activation; at 10 µM; stronger effect = higher value
Hit rate of the full screen: of about 270,000 compounds, about 410 (0.15%) were called active. The entries come from a sample that favours actives as a whole.
Reply numerically in %, unit not repeated.

input: Let me know recorded activation for O=C(Nc1cccc(Cl)c1)c1cn(CC2CCCO2)cc2c(=O)n(-c3ccccc3)nc1-2 (configuration not stated) , thanks.
output: 6.45

input: Supply activation value. Item: `Nc1c(Oc2ccccc2)cc(Nc2ccccc2)c2c1C(=O)c1ccccc1C2=O`
output: -5.96

input: Return reported activation. Input compound: `c1csc(-c2nc(CSc3nnc(-c4cccs4)n3C3CC3)co2)c1`
output: 7.96

input: Output measured activation for this item: `CCN(CC)c1onc(-c2ccc(F)cc2)c1CN(CCOC)C(=O)Cc1ccccc1`
output: 16.6

input: Identify measured activation corresponding to `CCc1cccc2sc(N(Cc3ccccn3)C(=O)c3cccc(S(=O)(=O)CC)c3)nc12`
output: -3.52

input: Using known records, supply activation for O=C(NC1COC2(CCCCC2)C1)c1ccco1 (configuration not stated)
output: -7.46

input: Recall and state the measured activation for CCOC(C)c1noc(CNC2(c3noc(CC)n3)CCCC2)n1 (configuration not stated) .
output: 1.21
